# experimental.target: Acetylcholinesterase (Homo sapiens, UniProt P22303)
# Sequence (P22303 whole entry): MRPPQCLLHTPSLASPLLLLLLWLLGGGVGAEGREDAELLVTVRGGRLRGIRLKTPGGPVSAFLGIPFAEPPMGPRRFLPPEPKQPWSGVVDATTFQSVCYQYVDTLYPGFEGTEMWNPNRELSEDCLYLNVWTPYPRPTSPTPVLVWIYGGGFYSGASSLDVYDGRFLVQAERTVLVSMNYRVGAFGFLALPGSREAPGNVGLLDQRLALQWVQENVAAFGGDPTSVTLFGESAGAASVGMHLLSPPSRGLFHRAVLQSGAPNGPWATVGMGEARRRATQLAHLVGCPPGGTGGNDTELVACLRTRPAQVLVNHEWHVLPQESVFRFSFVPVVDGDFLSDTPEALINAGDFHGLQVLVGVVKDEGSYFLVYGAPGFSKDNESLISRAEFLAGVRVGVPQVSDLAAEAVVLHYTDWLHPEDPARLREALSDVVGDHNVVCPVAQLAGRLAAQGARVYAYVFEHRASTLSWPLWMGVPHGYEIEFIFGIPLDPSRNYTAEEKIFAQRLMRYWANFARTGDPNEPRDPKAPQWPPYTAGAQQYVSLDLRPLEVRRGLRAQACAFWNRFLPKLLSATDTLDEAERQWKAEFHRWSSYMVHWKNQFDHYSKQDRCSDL
pIC50: −log10 of the molar value.
Classification field: enter Condition met for pIC50 values not below 8, Condition not met for values below it.

Observe how each entry below is paired with its result.
COc1cc2c(cc1OC)SC(CC1CC[N+](C)(Cc3ccccc3)CC1)C2 (stereo not given); Condition not met
COc1cc2onc(CCC3CCN(Cc4ccccc4)CC3)c2cc1C; Condition met
COc1cc2c(cc1OC)SC(C(=O)CC1C=CC[N+](C)(Cc3ccccc3)CC1)C2 (stereo not given); Condition not met
COc1cc2c(cc1OC)SC(C(=O)CCc1cc[n+](Cc3coc([N+](=O)[O-])c3)cc1)C2 (stereo not given); Condition met
CCC[n+]1ccc(CCC(=O)C2Cc3cc(OC)c(OC)cc3S2)cc1 (stereo not given); Condition not met
CN1C(=O)Cc2cc3onc(CCC4CCN(Cc5ccccc5)CC4)c3cc21; Condition met
O=C(CCc1cc[n+](Cc2ccccc2)cc1)c1ccc2c(c1)OCO2; Condition not met
COc1cc2cc(C(=O)C3=CC[N+](C)(Cc4ccccc4)CC3)sc2cc1OC (stereo not given); Condition not met

With those in mind, consider the next compound.
Decide: is the reported value of pIC50 for CC[n+]1ccc(CCC(=O)C2Cc3cc(OC)c(OC)cc3S2)cc1 (stereo not given) equal to or greater than 8? Condition not met
